System: BT-549 breast
Assay: NCI tumour cell line growth inhibition, 48 h
recorded endpoint: GI50

Here is how some compounds turned out for GI50.
Field GI50 (BT-549 breast), entry CN1CCN(CCCOc2cc(O)c3c(=O)cc(-c4ccccc4)oc3c2)CC1 : 21.1 µM

Field GI50 (BT-549 breast), entry CNC(=O)c1cncc(/C=C/c2ccccc2Cl)c1 : > 25 µM

Field GI50 (BT-549 breast), entry Cc1cccc2c1[nH]c(=O)c1c3ccccc3cn21 : 12 µM

Field GI50 (BT-549 breast), entry CCn1c(-c2nonc2N)nc2c(N3CCCC3)nccc21 : > 21.8 µM

Field GI50 (BT-549 breast), entry CCCCn1c(=O)c(/C=C/C(=O)/C=C/c2cc3ccccc3n(CCCC)c2=O)cc2ccccc21 : 0.702 µM

Field GI50 (BT-549 breast), entry COc1c(N2CCN(CN3C(=O)C(=Nc4ccc(S(=O)(=O)Nc5ncccn5)cc4)c4cc(Cl)ccc43)C(C)C2)c(F)cc2c(=O)c(C(=O)O)cn(C3CC3)c12 (centres undefined) : 20.4 µM

Further cases:
Field GI50 (BT-549 breast), entry COc1cc(CNc2oc(-c3ccccc3)c(-c3ccccc3)c2C#N)cc(CN2CCN(C)CC2)c1O : 1.71 µM

Field GI50 (BT-549 breast), entry O=C([O-])CC(=O)[O-].[NH-][C@@H]1CCCC[C@H]1[NH-].[Pt+4] : 32.8 µM

Field GI50 (BT-549 breast), entry N#CC1=C(N)NC(=O)NC12Nc1ccccc1N2 : > 100 µM

----------
Test system: CCRF-CEM leukemia
Test: NCI tumour cell line growth inhibition, 48 h
// reported TGI per item

Here is how some molecules turned out for TGI.
Field TGI (CCRF-CEM leukemia), entry CO[P@@]1(=O)O[C@@H](c2ccccc2)[C@H](O)[C@]1(O)c1ccccc1 : > 100 µM

Field TGI (CCRF-CEM leukemia), entry C=C(C)[C@H]1CC23C(=O)[C@@](C)(C[C@H]2C1(C)C)C(=O)C(C(=O)C(C)C)=C3O : 24.9 µM

Field TGI (CCRF-CEM leukemia), entry NC(Cc1ccccc1)c1nccs1 (centres undefined) : > 100 µM

Field TGI (CCRF-CEM leukemia), entry CCC1(CC)C(=O)N(C(=O)c2cc(OC)c(OC)c(OC)c2)N(C(=O)c2cc(OC)c(OC)c(OC)c2)C1=O : > 50 µM

Field TGI (CCRF-CEM leukemia), entry CCC1([N+](=O)[O-])CN(N=O)C1 : > 100 µM

Further cases:
Field TGI (CCRF-CEM leukemia), entry C=C1C[C@@H]2O[C@H]3[C@H]4[C@@H](C[C@@H](C)[C@@H](OC(C)=O)[C@H]42)[C@@H](C)CO[C@@]3(C)[C@H](OC(=O)CCCCCCC)CC1=O : 23.8 µM

Field TGI (CCRF-CEM leukemia), entry O=C1CSC(c2c[nH]c3ccccc23)N1c1ccc(Cl)cc1Cl (centres undefined) : > 100 µM

Field TGI (CCRF-CEM leukemia), entry COc1ccc2c(c1OC)C(=O)N1C2=Cc2c(cc3c(c2OC)OCO3)CC1N(C)C (centres undefined) : > 100 µM

Field TGI (CCRF-CEM leukemia), entry CCOC(=O)C(NC(=O)c1cccc(Cl)c1)(Nc1cccc(C)c1)C(F)(F)F (centres undefined) : > 100 µM

Field TGI (CCRF-CEM leukemia), entry O=C(C(=C(I)I)c1ccccc1)c1ccccc1 : 51.7 µM

Field TGI (CCRF-CEM leukemia), entry Cn1c(=O)cc(NNc2ccc(Cl)c(Cl)c2)[nH]c1=O : 37.3 µM

Values from PubChem BioAssay (NCI)
